B1: glmS ribozyme (parent)
chain: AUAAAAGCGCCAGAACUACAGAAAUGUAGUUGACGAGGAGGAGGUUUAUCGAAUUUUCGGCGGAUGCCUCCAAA

variants of: B1; test: self-cleavage kobs at 10000 uM GlcN6P; higher = faster cleavage; RNA array; conditions: with glucosamine-6-phosphate
Variants at the floor of the assay were thinned out.
Task for the reader: assign each of the following variants its reported self-cleavage kobs at 10000 uM GlcN6P.

Examples with their reported self-cleavage kobs at 10000 uM GlcN6P follow.
mutant_label="A6U G9C" assay_endpoint="self-cleavage kobs at 10000 uM GlcN6P" measured_result="< 1e-05 s⁻¹"
mutant_label="A12U G32U" assay_endpoint="self-cleavage kobs at 10000 uM GlcN6P" measured_result="0.000345 s⁻¹"
mutant_label="A14C U46A" assay_endpoint="self-cleavage kobs at 10000 uM GlcN6P" measured_result="0.000301 s⁻¹"

Now for the variant whose self-cleavage kobs at 10000 uM GlcN6P we want.
For record G32C C34A the listed self-cleavage kobs at 10000 uM GlcN6P is < 1e-05 s⁻¹

Reference source for all entries: the supplement of paper PMC7125110
